- System: Shionogi mouse mammary carcinoma cells
- assay-comment: Antiandrogenic activity on DHT-stimulated Shionogi mouse mammary carcinoma cell number
- Assay type: cell-based
- assay-conditions: Mus musculus, read-out: Antiandrogenic activity IC50 (nM)
The following compounds are listed with their measured IC50 values.
Write it as a number; the unit nM goes unstated.

Please review the following examples before continuing.
N#Cc1ccc(-c2ccc(C#N)c(C(F)(F)F)c2)c(Cl)c1 ... 52
N#Cc1ccc(-c2ccc(Cl)cc2)cc1C(F)(F)F ... 97
COc1cc(F)ccc1-c1ccc(C#N)c(C(F)(F)F)c1 ... 96

--- query ---
In one line, give reported IC50 of the entry `N#Cc1ccc(-c2ccc(F)cc2[N+](=O)[O-])cc1C(F)(F)F` .
43.2

---

- Tested on: Shionogi mouse mammary carcinoma cells
- assay-comment: Antiandrogenic activity on DHT-stimulated Shionogi mouse mammary carcinoma cell number
- Format: cell-based
- assay-conditions: Mus musculus, read-out: Antiandrogenic activity IC50 (nM)
observed-property: IC50

Please review the following examples before continuing.
N#Cc1ccc(-c2ccc([N+](=O)[O-])c(C(F)(F)F)c2)cc1 ... > 500 nM
N#Cc1ccc(-c2ccc(F)cc2C(=O)N2CCCCC2)cc1C(F)(F)F ... > 500 nM

--- query ---
Identify measured IC50 obtained with Shionogi mouse mammary carcinoma cells for `N#Cc1ccc(-c2ccc(F)cc2C(=O)Nc2ccccc2)cc1C(F)(F)F` .
> 500 nM

src = patent US6933321B2
